target: Rac GTPase-activating protein 1 (Homo sapiens) (UniProt Q9H0H5); assay: blockers of MgcRacGAP-driven Rac1 GTP hydrolysis – biochemical, ADP Hunter fluorescence, primary and confirmatory, confirmation (AID 624330); conditions: MgcRacGAP-stimulated Rac1 GTP hydrolysis, at 30 µM, stronger effect = higher value, GST-tagged Rac1 F28L mutant substrate;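 also: fluorescence reports GDP produced by GAP-driven GTP hydrolysis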
Sequence (Q9H0H5 whole entry, looked up): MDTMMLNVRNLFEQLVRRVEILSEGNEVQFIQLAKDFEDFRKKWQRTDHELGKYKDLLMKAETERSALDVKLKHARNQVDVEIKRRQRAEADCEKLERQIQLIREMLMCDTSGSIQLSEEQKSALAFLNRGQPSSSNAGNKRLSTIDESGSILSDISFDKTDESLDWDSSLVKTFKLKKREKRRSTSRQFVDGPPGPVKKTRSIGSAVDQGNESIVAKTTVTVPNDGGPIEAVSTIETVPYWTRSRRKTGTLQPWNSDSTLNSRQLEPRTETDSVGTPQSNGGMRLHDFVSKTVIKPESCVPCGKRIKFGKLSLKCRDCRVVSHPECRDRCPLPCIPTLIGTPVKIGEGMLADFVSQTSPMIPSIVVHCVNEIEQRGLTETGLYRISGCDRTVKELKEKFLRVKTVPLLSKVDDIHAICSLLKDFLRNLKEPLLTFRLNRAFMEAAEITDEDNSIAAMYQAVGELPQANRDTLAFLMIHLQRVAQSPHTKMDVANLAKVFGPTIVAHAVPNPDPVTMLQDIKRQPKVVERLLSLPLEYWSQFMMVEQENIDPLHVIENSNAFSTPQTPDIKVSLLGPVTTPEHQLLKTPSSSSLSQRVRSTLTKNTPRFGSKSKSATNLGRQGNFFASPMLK
Among all 340,000 compounds or so, about 2,100 (0.62%) were called active. These entries were drawn from the full list. Entries with a potency or affinity are not part of this list.
For each record, write down the corresponding inhibition.
# number only, unit % dropped from output

Asked: Look up and state reported inhibition for O=C(CNCC1CCCO1)Nc1ccccc1N1CCCCCC1 (stereo unspecified)
Given back: 15.5

Asked: State its inhibition for this molecule: COc1ccc(NC(=O)c2ccc(NC(=O)CN3CCN(c4ccccc4)CC3)cc2)cc1
Given back: -2.48

Asked: Supply recorded inhibition for Cc1cc(Cl)ccc1NC(=S)N1CCN(C(=O)c2ccco2)CC1 here.
Given back: 5.96

Asked: Give a short answer stating reported inhibition for O=C(N/C=C\n1cnc2cc(C(F)(F)F)ccc21)c1ccc([N+](=O)[O-])cc1 .
Given back: 6.01

Asked: Look up and state reported inhibition for CCN1CCN(CCC(=O)Nc2ccc3c(c2)OCO3)CC1
Given back: -5.95

Asked: Annotate the molecule CN1CCN(CCC(=O)Nc2ccc3c(c2)OCO3)CC1 with its measured inhibition.
Given back: 9.52

* * *

biological target: Rac GTPase-activating protein 1 (Homo sapiens) (UniProt Q9H0H5); assay: blockers of MgcRacGAP-driven Rac1 GTP hydrolysis – biochemical, ADP Hunter fluorescence, primary and confirmatory, confirmation (AID 624330); conditions: MgcRacGAP-stimulated Rac1 GTP hydrolysis, at 30 µM, stronger effect = higher value, GST-tagged Rac1 F28L mutant substrate;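 also: fluorescence reports GDP produced by GAP-driven GTP hydrolysis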
In all, about 340,000 compounds went through this assay and about 2,100 (0.62%) were called active. Not all results are given here. Results with a measured potency or affinity are listed apart.
Give inhibition for every item shown.
Quick note: give the figure in %, leave out the unit.

Asked: Give the value of inhibition reported for the following: CCOc1cc(/C=C/c2cccc[n+]2C)ccc1OCC(=O)Nc1ccc(C)cc1
Given back: 7.44

Asked: Report inhibition for CSc1nsc(/C=C/Nc2ccc(Cl)cc2)c1C#N
Given back: 6.16

Asked: Identify inhibition associated with the compound CC(C)(C)NC(=O)COc1coc(CN2CCN(Cc3ccccc3)CC2)cc1=O
Given back: -6.74

Asked: Report inhibition, nothing else, for this compound: COC(=O)c1c(NC(=O)C2CCCCC2)sc2c1CCN(C(C)C)C2
Given back: 8.85

Asked: Report inhibition for CC(C)CNC(=O)NC(=O)COC(=O)c1cc(F)cc(F)c1
Given back: 2.44

Asked: // Input: Cc1ccc(NC(=S)N=Nc2c(O)[nH]c3ccccc23)cc1 . Output its inhibition only.
Given back: 9.95

Asked: Look up inhibition of Cc1ccc(Nc2cc(C)nc3ncnn23)c(C)c1 and report it.
Given back: 7.05

Asked: For O=C(CN1CCN(c2cccc(C(F)(F)F)c2)CC1)N(C1CC1)C1CCS(=O)(=O)C1 (stereo not given) , write its inhibition.
Given back: -5.48

Asked: Give a short answer stating reported inhibition for COC(=O)c1sc2ncccc2c1OCc1ccc(Cl)cc1 .
Given back: 1.91

Asked: Provide measured inhibition value, entry: O=C1Nc2ccccc2/C1=N\N1CCOCC1
Given back: 3.01

Asked: Please give measured inhibition of the following entry: O=C(c1ccc(Cl)nc1)N1CCN(C/C=C/c2ccccc2)CC1
Given back: 10.5

Asked: Look up and report measured inhibition for this entry: COc1cc(CNc2ncn[nH]2)ccc1OCc1cccc(C)c1
Given back: 8.87

Asked: State, in one line, measured inhibition of COCc1ccc(CN2CCC(N3CCC(C(=O)N4CCCC4)CC3)CC2)o1
Given back: 1.64

Asked: Tell us which inhibition value is on record for C[C@H](O)CNC(=O)c1[nH]cnc1C(=O)Nc1ccc(CNC(=O)OC(C)(C)C)cc1
Given back: 13.6

Asked: For the compound CCOC(=O)C1CCN(C(=O)c2cc(S(=O)(=O)N3CCCCCC3)ccc2OC)CC1 , report inhibition.
Given back: 0.78

Asked: Fill in reported inhibition for this entry: COc1cccc(CNCCO)c1OCc1ccccc1Cl
Given back: 9.99

Asked: Give the reported value of inhibition for this record: C=CCN(CC=C)c1ncnc2[nH]ncc12
Given back: 0.33

Asked: Tell us which inhibition value is on record for COc1cc(C(=O)NCc2nnc(SCC(=O)N3CCCCC3)o2)cc(OC)c1OC
Given back: 6.92

Asked: # return recorded inhibition for input COc1cccc(CNc2ccc3[nH]c(=O)[nH]c3c2)c1OCc1ccc(F)cc1
Given back: 26.2

Asked: Please give measured inhibition of the following entry: C[n+]1ccccc1/C=C/c1ccc(F)c(F)c1
Given back: 9.42

Asked: Give the value of inhibition reported for the following: COc1cc(CNc2ccc3[nH]c(=O)[nH]c3c2)ccc1OCc1ccc(C)cc1
Given back: 16.9

Asked: Fill in reported inhibition for this entry: Cc1ccnc(SCc2cn3c(C)cccc3n2)n1
Given back: 0.6

Asked: Could you please provide reported inhibition for Oc1[nH]c2ccc(Br)cc2c1N=NC(=S)Nc1ccc(F)cc1 ? Thanks!
Given back: 2.02

Asked: Please look at this compound and report its inhibition: COc1cccc(NC(=O)COC(=O)c2ccccc2C(=O)N2CCN(c3ccccc3)CC2)c1
Given back: -5.54

Asked: Respond only with inhibition recorded for O=C(NCCS(=O)(=O)c1ccc(Cl)cc1)c1ccc(F)cc1
Given back: 2.29

Asked: Item COc1ccc(OC)c(S(=O)(=O)N2CCC3(CC2)CC(=O)c2ccccc2O3)c1 : provide inhibition
Given back: 8.64

Asked: Consider the compound COc1ccc(/C=C2\SC(N3CCc4ccccc4C3)=NC2=O)cc1OC . State its measured inhibition.
Given back: 10.4

Asked: Could you please provide reported inhibition for Cc1nsc(Nc2ccc([N+](=O)[O-])cc2)c1C#N ? Thanks!
Given back: 2.18

Asked: Determine from records and report inhibition for COCCN(C(=O)CSc1nnc(C)n1-c1ccccc1)c1c(N)n(Cc2ccccc2)c(=O)[nH]c1=O
Given back: 9.16

Asked: // fetch inhibition given entry Oc1ccc(NCc2ccccc2OCc2ccccc2)cc1
Given back: 11.9

Asked: Supply inhibition value. Item: Cc1ccc(C)c(N2CCN(C(=O)Cc3ccc(NC4=NC5CS(=O)(=O)CC5S4)cc3)CC2)c1 (stereo not given)
Given back: 15.3

Asked: Please give the documented inhibition of CN1CCN(NC(=O)NC2CCCCC2)CC1
Given back: 2.74

Asked: Could you please provide reported inhibition for CC1CCCCN1Cc1ccc(N(C)C)cc1 (stereo not given) ? Thanks!
Given back: 9.51

Asked: Read the entry O=C1Nc2ccccc2C1=NN1CCCCCC1 and write its reported inhibition.
Given back: -3.27

Asked: Indicate its recorded inhibition; the compound in question is CCCc1nc(NC(=O)c2ccccc2)nc(NC(=O)c2ccccc2)n1
Given back: 3.82

Asked: Provide only the value of recorded inhibition for O=C1C2C3C=CC(CC3)C2C(=O)N1c1ccc([N+](=O)[O-])cc1 (stereo not given)
Given back: 12.6

Asked: Please give measured inhibition of the following entry: NC(=O)CC(NC(=O)c1ccccc1)c1ccc(N2CCN(c3ccccn3)CC2)c([N+](=O)[O-])c1 (stereo not given)
Given back: 6.77

Asked: Please supply the value of reported inhibition for the item COc1ccc(NC(=S)N=Nc2c(O)[nH]c3ccccc23)cc1
Given back: 19.4

Asked: Consider the compound CCOc1cc(CNc2ncn[nH]2)ccc1OCC(=O)NC(C)(C)C and give its recorded inhibition.
Given back: 1.46

Asked: Find the measured inhibition of CCOc1cc(N2CCOCC2)c(OCC)cc1NC(=O)COC(=O)c1ccc(Cl)nc1 and report it.
Given back: 1.55

Asked: Please list inhibition recorded for the compound O=C(O)COc1ccc2nsnc2c1Cl
Given back: 6.84

Asked: Query inhibition for C/C(=N/NC(=O)CNC(=O)c1cccs1)c1ccc(Cl)cc1
Given back: 5.28

Asked: In one line, give reported inhibition of the entry Cc1ccc(CNS(=O)(=O)NCc2ccc(Cl)cc2)cc1 .
Given back: 0.28

Asked: Could you please provide reported inhibition for COc1ccc(CCN2CCCn3c2nc2c3c(=O)[nH]c(=O)n2C)cc1OC ? Thanks!
Given back: 6.67

Asked: Retrieve inhibition measured for O=C(COc1ccc(-c2nnco2)cc1)NC1CCS(=O)(=O)C1 (stereo not given) and print it.
Given back: 2.22

* * *

target: Rac GTPase-activating protein 1 (Homo sapiens) (UniProt Q9H0H5); experiment: blockers of MgcRacGAP-driven Rac1 GTP hydrolysis – biochemical, ADP Hunter fluorescence, primary and confirmatory, confirmation (AID 624330); conditions: MgcRacGAP-stimulated Rac1 GTP hydrolysis, at 30 µM, stronger effect = higher value, GST-tagged Rac1 F28L mutant substrate;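 also: fluorescence reports GDP produced by GAP-driven GTP hydrolysis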
Among all 340,000 compounds or so, about 2,100 (0.62%) were called active. A selection follows. Potency and affinity values are given separately.
Provide the recorded inhibition for the entries that follow.
# unit: % | format: bare number

Asked: Indicate the recorded inhibition value for this compound: CCOc1ccc(C=NNc2ccc(S(=O)(=O)Nc3ccccc3C(=O)O)cc2[N+](=O)[O-])cc1OC
Given back: 10

Asked: Give recorded inhibition. COC(=O)C1=C(O)/C(=C/c2ccc(OCC(=O)Nc3ccc(OC)cc3)cc2)N=C1C
Given back: 6.48

Asked: Let me know recorded inhibition for COC(=O)C1=C(O)/C(=C/c2cccc(OC)c2O)N=C1C , thanks.
Given back: 28.1

Asked: Recall and state the measured inhibition for CCOC(=O)C1=C(O)/C(=C/c2cc(OC)c(OC)c(OC)c2)N=C1C .
Given back: 2.56

Asked: Read off the recorded inhibition for Cc1ccc(N=Nc2ccc(O)cc2)c(Br)c1
Given back: 14.6

Asked: Fill in inhibition for record CCOc1cc(/C=N/n2cnnc2)cc(Br)c1O
Given back: 14.1

Asked: // Input: CC(=O)Nc1ccc(C=NNc2ccc(S(=O)(=O)Nc3ccccc3C(=O)O)cc2[N+](=O)[O-])cc1 . Output its inhibition only.
Given back: 15.7

Asked: Given COC(=O)C1=C(O)/C(=C\c2sccc2C)N=C1C , respond with its inhibition.
Given back: 10.9

Asked: Give recorded inhibition. Cc1ccc(N=C(N)N=C(N)N)cc1
Given back: 16.3

Asked: Given the compound Cc1ccc(C2/C=C\CC(NC(=O)OCC3c4ccccc4-c4ccccc43)CC(=O)N2Cc2ccccc2)cc1 (stereo unspecified) , write its reported inhibition.
Given back: 7.21

Asked: Let me know recorded inhibition for CCOc1cc(/C=N/N=C/c2ccc(O)c(OCC)c2)ccc1O , thanks.
Given back: 9.66
